# STUDY_TARGET: ALK kinase (Homo sapiens, UniProt Q9UM73)
# Sequence (Q9UM73 19-1620): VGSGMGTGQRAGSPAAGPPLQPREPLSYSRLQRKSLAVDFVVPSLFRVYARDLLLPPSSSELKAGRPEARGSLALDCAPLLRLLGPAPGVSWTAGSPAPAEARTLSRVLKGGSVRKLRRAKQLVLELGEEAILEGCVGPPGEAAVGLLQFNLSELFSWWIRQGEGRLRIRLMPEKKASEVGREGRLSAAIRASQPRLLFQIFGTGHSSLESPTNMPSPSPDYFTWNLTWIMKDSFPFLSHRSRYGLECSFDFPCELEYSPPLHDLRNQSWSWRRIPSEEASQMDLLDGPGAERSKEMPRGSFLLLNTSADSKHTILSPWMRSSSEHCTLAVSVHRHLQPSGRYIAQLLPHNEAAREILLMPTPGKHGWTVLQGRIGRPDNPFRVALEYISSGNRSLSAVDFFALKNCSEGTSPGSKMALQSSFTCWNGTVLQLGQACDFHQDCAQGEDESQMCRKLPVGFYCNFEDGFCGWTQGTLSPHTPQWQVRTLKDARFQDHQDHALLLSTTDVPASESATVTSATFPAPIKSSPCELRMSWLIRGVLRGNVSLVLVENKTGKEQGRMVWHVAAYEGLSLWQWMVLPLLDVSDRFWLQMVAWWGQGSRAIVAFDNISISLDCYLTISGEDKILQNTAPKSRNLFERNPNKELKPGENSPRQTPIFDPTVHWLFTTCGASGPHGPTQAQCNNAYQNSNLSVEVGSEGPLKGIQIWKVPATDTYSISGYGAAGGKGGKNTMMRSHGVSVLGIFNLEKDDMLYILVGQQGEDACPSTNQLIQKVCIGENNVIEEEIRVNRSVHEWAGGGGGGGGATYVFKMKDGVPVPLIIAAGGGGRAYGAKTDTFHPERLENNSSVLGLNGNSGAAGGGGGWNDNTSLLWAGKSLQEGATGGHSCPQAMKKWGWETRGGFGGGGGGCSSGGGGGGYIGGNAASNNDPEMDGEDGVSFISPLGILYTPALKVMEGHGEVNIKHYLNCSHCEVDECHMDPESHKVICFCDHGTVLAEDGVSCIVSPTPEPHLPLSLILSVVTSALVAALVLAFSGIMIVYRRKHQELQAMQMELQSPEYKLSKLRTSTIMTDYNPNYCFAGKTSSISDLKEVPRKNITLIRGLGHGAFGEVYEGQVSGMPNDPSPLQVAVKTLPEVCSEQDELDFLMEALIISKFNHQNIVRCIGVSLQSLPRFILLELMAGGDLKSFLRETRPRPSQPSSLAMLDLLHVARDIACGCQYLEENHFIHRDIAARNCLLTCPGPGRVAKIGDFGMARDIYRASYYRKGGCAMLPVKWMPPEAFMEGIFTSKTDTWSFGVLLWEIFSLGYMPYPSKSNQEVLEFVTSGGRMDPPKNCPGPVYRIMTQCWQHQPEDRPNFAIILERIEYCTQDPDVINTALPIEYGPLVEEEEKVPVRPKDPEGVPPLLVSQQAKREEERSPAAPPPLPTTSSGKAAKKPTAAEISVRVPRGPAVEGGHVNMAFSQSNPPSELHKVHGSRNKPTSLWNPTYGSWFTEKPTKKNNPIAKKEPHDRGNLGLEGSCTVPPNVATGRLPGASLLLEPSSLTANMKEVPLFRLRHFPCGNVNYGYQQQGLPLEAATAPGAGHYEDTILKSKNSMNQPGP
# TEST: In vitro ALK kinase-inhibiting activity (SA-XL665/tyrosine kinase antibody, 665 nm/615 nm read)
# Type: biochemical
# SETTINGS: Experimental Example 1; 25° C., 30 min enzymatic reaction; read-out: ALK enzyme-inhibiting activity IC50
ASSAY_METRIC: IC50 (nM)

>>> readout_value("Cc1cc(Nc2ncc(Cl)c(Nc3ccccc3S(=O)(=O)C(C)C)n2)c2c(c1C1CCNCC1)OCO2")
0.2

A. Cc1cc(Nc2ncc(Cl)c(Nc3ccccc3S(=O)(=O)C(C)C)n2)c2c(c1C1CCNCC1)OCCO2
B. Cc1cc(Nc2ncc(Cl)c(Nc3ccccc3S(=O)(=O)N(C)C)n2)c2c(c1C1CCNCC1)OCCO2
C. Cc1cc(Nc2ncc(Cl)c(Nc3ccccc3S(=O)(=O)N(C)C)n2)c2c(c1C1CCNCC1)OCO2
Prompt: Rank order required: IC50, descending. Returns: the labels listed in the requested order.
Response: C, A, B
(C: 1.7 nM, A: 0.9 nM, B: 0.6 nM)

----------
# STUDY_TARGET: ALK kinase (Homo sapiens)
# TEST: In vitro ALK kinase inhibitory activity by Caliper Mobility Shift assay
# Type: biochemical
# SETTINGS: Experimental Example 2, 28° C., 1 h, read-out: ALK enzyme-inhibiting activity IC50
pIC50: −log10 of the molar value.
ASSAY_METRIC: pIC50

>>> readout_value("Cc1cc(Nc2ncc(Cl)c(Nc3ccccc3S(=O)(=O)C(C)C)n2)c2c(c1C1CCNC1)OCCO2 (stereo not drawn)")
9.44
>>> readout_value("Cc1cc(Nc2ncc(Cl)c(Nc3ccccc3S(=O)(=O)C(C)C)n2)c2c(c1C1=CCNCC1)CCCO2")
9.27
>>> readout_value("Cc1cc(Nc2ncc(Cl)c(Nc3ccccc3S(=O)(=O)C(C)C)n2)c2c(c1C1CNC1)OCCO2")
9.35

----------
# TEST: Pharmacokinetics in rat
# Format: in vivo
# SETTINGS: plasma, iv 2 mg/kg, po 5 mg/kg
ASSAY_METRIC: bioavailability

Prompt: Answer with the recorded bioavailability for the molecule listed here: "Cc1cc(Nc2ncc(Cl)c(Nc3ccccc3S(=O)(=O)C(C)C)n2)c2c(c1C1CCNCC1)OCCO2"
Response: 30 to 50%

----------
# System: NCI-H2228
# TEST: In vitro cell activity, NCI-H2228, CTG detection
# Format: cell-based
# SETTINGS: Homo sapiens, NCI-H2228, 96 h, read-out: cell-inhibiting activity IC50, NCI-H2228
ASSAY_METRIC: IC50 (nM)
Just the number please, in nM, no unit attached.

Prompt: Answer with the recorded IC50 for the compound listed here: Cc1cc(Nc2ncc(Cl)c(Nc3ccccc3S(=O)(=O)C(C)C)n2)c(OC(C)C)cc1C1CCNCC1 [Ceritinib, reference compound]
Response: 48.1
